system: Plasmodium falciparum; experiment: GSK_TCMDC: Inhibition of Plasmodium falciparum 3D7 in whole red blood cells, using parasite LDH activity as an index of growth. Test compounds present at 2uM; type: functional
endpoint.name: Inhibition (%)
Form entry: value (%) — number only.

Fill in Inhibition for "CCOC(=O)N1CCN(CCCCNc2c3ccc(Cl)cc3nc3ccc(OC)cc23)CC1.Cl" tested with Plasmodium falciparum.
100

Find Inhibition for "COc1cccc2c(NN=Cc3cccc(F)c3)ccnc12" on Plasmodium falciparum and write it down.
99

Write down the reported Inhibition (system: Plasmodium falciparum) of CCC1CCCCN1S(=O)(=O)c1ccc(NC(=O)c2cc(C)on2)cc1 (stereo not given)
86

Report measured Inhibition on Plasmodium falciparum; entry: "COc1ccc(NC(=O)[C@H](CC(C)C)Nc2ccnc(Nc3ccccc3)n2)cc1.O=C(O)C(F)(F)F"
92

Give the observed Inhibition of "COCCNCc1cccc(-c2cccc(CNC3CCN(Cc4ccccc4)CC3)c2)c1.O=C(O)C(F)(F)F" for Plasmodium falciparum.
100

For Plasmodium falciparum, give Inhibition of the listed compound: "COc1ccc(NC(=O)Nc2ccc(Nc3nc(C)cc(N(C)C)n3)cc2)cc1"
100

Fill: Inhibition (Plasmodium falciparum) for this compound CCCC(=O)NC(NC(=S)Nc1ccc([N+](=O)[O-])cc1)C(Cl)(Cl)Cl (stereo not given)
93

Quote Inhibition with test system Plasmodium falciparum for Cc1cc(C(=O)Nc2ccc3c(c2)CCN3C2CCN(Cc3cccc4cc[nH]c34)C2)no1 (stereo not given)
97

Look up and report Inhibition, with Plasmodium falciparum as system, for "O=C(Nc1cccc(-c2ccc(-c3nc4ccccc4[nH]3)cc2)c1)Nc1ccc2c(c1)OCO2"
90

Answer with Inhibition of "COc1cccc(NC(=O)Nc2ccc(Nc3nc(C)cc(N(C)C)n3)cc2)c1" measured for Plasmodium falciparum.
100

----------
tested on: Plasmodium falciparum; experiment: GSK_TCMDC: Inhibition of Plasmodium falciparum Dd2 in whole red blood cells, using parasite LDH activity as an index of growth. Test compounds present at 2uM; assay type: functional
endpoint.name: Inhibition

Quickly give me recorded Inhibition for "CCCCc1ccc(C(=O)NC2CCN(C[C@H](O)c3ccnc4ccc(OC)cc34)CC2)cc1"
22%

Tell me measured Inhibition for "CS(=O)(=O)Nc1cccc(-c2cnc3[nH]cc(-c4ccc(CCC(=O)O)cc4)c3c2)c1" please.
78%

Please report Inhibition for the following compound: "CN1CCC(C(=O)Nc2ccc(-c3ccc(-c4nc5cc(C(F)(F)F)ccc5[nH]4)s3)cc2)CC1"
95%

State, in one line, measured Inhibition of "O=C(Nc1cccc(-c2cccc(-c3nc4ccccc4[nH]3)c2)c1)c1ccncc1"
38%

Write down Inhibition measured for item "O=C(NCCCCN1CCC(c2ccc3c(c2OCC2CC2)CCCC3)CC1)c1ccc(NC(=O)c2ccc(Cl)cc2)cc1"
93%

// Input: COc1ccc(-c2nc3cc4ccccc4nc3[nH]2)c(OCC(O)CNC(C)C)c1.Cl (stereo unspecified) . Output its Inhibition only.
96%

Give me measured Inhibition, please, for this compound: CCOc1ncccc1CN1CCC(N2CCc3cc(NC(=O)c4ccco4)ccc32)C1 (stereo unspecified)
94%

Output Inhibition of "CCCOc1cc(OCCC)cc(-c2cc(=O)c3ccccc3[nH]2)c1"
96%

Please give measured Inhibition of the following entry: N=C1NC(=N)N(OCCCCCCON2C(=N)NC(=N)NC2C=Cc2ccccc2)C(C=Cc2ccccc2)N1 (stereo unspecified)
94%

Indicate its recorded Inhibition; the compound in question is CCC1=C(CC2NCCc3cc(OC)c(OC)cc32)CC2c3cc(OC)c(OC)cc3CCN2C1 (stereo unspecified) [DIHYDROEMETINE]
100%

Fill in reported Inhibition for this entry: "O=S(=O)(c1c(Cl)cc(Cl)cc1Cl)N1CCCCC(c2ccc(Cl)cc2)=N1"
93%

Determine from records and report Inhibition for "O=C(NC1CCCCC1)N(Cc1ccc(-c2cccc(CNCc3ccc4c(c3)OCO4)c2)cc1)C1CCN(Cc2ccccc2)CC1.O=C(O)C(F)(F)F"
72%

Quick one: give measured Inhibition for "C[C@H]1CN(Cc2cccc(-c3cc(CNC(=O)c4cccc(CN5CCN(C/C=C/c6ccccc6)CC5)c4)ccc3F)c2)CCN1.O=C(O)C(F)(F)F"
46%

Return reported Inhibition. Input compound: "COc1cccc(-c2cccc(NC(=O)C3CCN(Cc4ccc(O)cc4)CC3)c2)c1"
97%

State its Inhibition: "Cl.O=C(CCCCCCc1ccccc1)Nc1ccc2nc3c(c(NCc4ccccc4)c2c1)CCCC3"
98%

Answer with the recorded Inhibition for the compound listed here: "Nc1nccc2ccc(-c3ccc(NC(=O)Nc4cc(C(F)(F)F)ccc4F)cc3)cc12.O=C(O)C(F)(F)F"
100%

// Input: "c1csc(-c2nc(N3CCCC3)ncc2-c2ccsc2)n1" . Output its Inhibition only.
75%

In one line, give reported Inhibition of the entry "FC(F)(F)c1ccc2[nH]c(-c3ccc(-c4ccc(CNCCc5ccncc5)cc4)cc3)nc2c1.O=C(O)C(F)(F)F" .
100%

Quick one: give measured Inhibition for "CC1CCN(CC[C@H]2CCCN2S(=O)(=O)c2cccc(NC(=O)c3cc4ccccc4s3)c2)CC1"
41%

Specify measured Inhibition for "O=C(/C=C/c1ccc(Cl)c(Cl)c1)NCCCCCN1CCC(NC(=O)c2ccc([N+](=O)[O-])cc2)CC1" .
6%

Please give the documented Inhibition of CCCc1cc(OC)c(CC2c3cc(O)c(C)cc3CCN2C)cc1OC.Cl (stereo unspecified)
89%

Give the reported Inhibition for this compound. OC(CNc1ccnc(Nc2ccc(Cl)cc2)n1)c1cccc(C(F)(F)F)c1 (stereo unspecified)
84%

Specify reported Inhibition for the compound shown: "Fc1ccc2[nH]c(-c3cccc(-c4ccc(CNCCN5CCNCC5)cc4)c3)nc2c1.O=C(O)C(F)(F)F"
0%

Consider the compound "CNC(=N)c1ccc(NC(=O)Nc2ccc(C(=N)NC)cc2)cc1.Cl" . State its measured Inhibition.
71%

Note down Inhibition recorded for "Clc1ccc(-c2cnc3ccc(NCc4ccncc4)nn23)cc1"
98%

Note down Inhibition recorded for "CC(C)n1ncc2c3c(N)nc(N)nc3ccc21"
6%

Annotate the compound "Cl.N#Cc1ccc(CCNc2nccc(-c3cccc(CN4CCNCC4)c3)n2)cc1" with its measured Inhibition.
0%

Retrieve Inhibition measured for "COCCn1ccc2c3c(N)nc(N)nc3ccc21" and print it.
29%

Provide measured Inhibition value, entry: "Cl.NCc1ccc(Nc2nccc(Nc3ccc(-c4ccccc4)cc3)n2)cc1"
98%

Find the measured Inhibition of "FC(F)(F)c1cccc(C=NNc2nc3ccccc3[nH]2)c1" and report it.
99%

Give Inhibition for the following compound: O=C(Nc1ccc(F)c(C(F)(F)F)c1)N[C@H]1CCN(CCCCCNC(=O)C2CC2c2ccc(Cl)c(Cl)c2)C1 (stereo partly specified)
0%

Give the reported value of Inhibition for this record: CCOC(=O)c1ccc(NC(=O)N[C@@H](Cc2ccccc2)C(=O)NC2CCN(Cc3ccc(OCCCN(C)C)cc3)C2)cc1 (stereo partly specified)
8%

Supply Inhibition value. Item: "CN1CCC(N2CCN(Cc3cccc(-c4ccc(-c5nc6ccccc6[nH]5)cc4)c3)CC2)CC1.O=C(O)C(F)(F)F"
99%

Tell me Inhibition reported for CN1CCCC(CN2CCN(Cc3cccc(-c4ccc(-c5nc6ccccc6[nH]5)s4)c3)CC2)C1.O=C(O)C(F)(F)F (stereo unspecified)
99%

Answer with the recorded Inhibition for the compound listed here: "O=C(Nc1ccc(OC2CCN(Cc3ccsc3)CC2)c(Cl)c1)c1cccs1.O=C(O)C(F)(F)F"
93%

Report Inhibition, nothing else, for this compound: "Cc1cccc2nc(-c3cccc(-c4cccc(CNCCNC(=O)c5ccnn5C)c4)c3)[nH]c12.O=C(O)C(F)(F)F"
71%
